# system: T1, TIA1 RRM2_3 (human, UniProt P31483-2 93-274)
# T1 sequence: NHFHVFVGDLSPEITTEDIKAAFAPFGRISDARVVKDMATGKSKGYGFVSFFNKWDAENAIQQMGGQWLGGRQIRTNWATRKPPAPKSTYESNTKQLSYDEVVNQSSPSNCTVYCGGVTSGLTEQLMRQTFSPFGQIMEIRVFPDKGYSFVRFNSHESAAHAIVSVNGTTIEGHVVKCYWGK
# assay: EMSA; EMSA: 10 mM sodium phosphate pH 6.5, 50 mM NaCl, 1 mM DTT, 1 U/ul SUPERase-In, room temperature 20 min, native 1.2% agarose; RNA annealed in 10 mM Tris-HCl pH 7.5, 100 mM KCl
# conditionNotes: protein: recombinant; tags: His6-SUMO removed by SUMO protease; label: 5'-Cy3; hairpin, 1-nt 3' tail
testReadout: pKd
Entry type: numeric. Quantity: pKd, the -log10 of concentration in molar units.

Identify measured pKd associated with UGUUCUCUAAACGAACU (structured_RNA) [SL3-TL1]
5.54
